Tested on: H9c2;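 note: cell death induced by hydrogen peroxide oxidative stress; compound pretreatment for 60 min then peroxide exposure for 2 h; potency is for protecting the cells against peroxide damage rather than for killing them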;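 note: confirmatory concentration-response retest of ultra-high-throughput screening hits for modulation of myocardial damage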
Assay method text: cells
Format: functional, cell-based
Run parameters: Rattus norvegicus, H9c2, Myocardium
Active and inactive are the calls of the source.
Could you please pick one outcome from this set? active, inactive

## Input Dear colleague, could you share the recorded outcome for O=C1COc2ccc(-c3nnc(O)c4ccccc34)cc2N1 when you have a moment?
## Output active

## Input Dear colleague, could you share the recorded outcome for COc1cc2c(C#CCCCO)c(-c3ccsc3)oc(=O)c2cc1OC when you have a moment?
## Output inactive

## Input Dear colleague, could you share the recorded outcome for COc1cccc(-c2cnc3c(NC=O)cc(-c4cccc(NC(C)=O)c4)cn23)c1 when you have a moment?
## Output inactive

## Input Dear colleague, could you share the recorded outcome for CN(CC(=O)Nc1ccccc1Br)C(=O)CCc1nc(O)c2ccccc2n1 when you have a moment?
## Output active

## Input Dear colleague, could you share the recorded outcome for COc1ccc(OCC(=O)N/N=C/c2cccc3cccnc23)cc1 when you have a moment?
## Output inactive

## Input Dear colleague, could you share the recorded outcome for CCOC(=O)c1c(C)[nH]c(O)c1/C=N/c1ccc(Cl)cc1 when you have a moment?
## Output active

## Input Dear colleague, could you share the recorded outcome for Cc1nc2c(c(=O)n1CCC1=CCCCC1)c1nc3ccccc3nc1n2/N=C/c1ccccc1 when you have a moment?
## Output inactive

## Input Dear colleague, could you share the recorded outcome for COc1ccc(CCNC(=O)c2cc3c(C)nccc3nc2O)cc1OC when you have a moment?
## Output inactive

## Input Dear colleague, could you share the recorded outcome for O=C(CCc1nc(O)c2ccccc2n1)NNC(=O)c1ccc(Cl)cc1 when you have a moment?
## Output inactive

## Input Dear colleague, could you share the recorded outcome for O=C(N/N=C/c1cn(-c2ccccc2)nc1-c1cccs1)c1ccccc1F when you have a moment?
## Output inactive

## Input Dear colleague, could you share the recorded outcome for CCOC(=O)C1CCN(C(=O)c2ccc3c(=O)n4nc(Nc5ccccc5OC)sc4nc3c2)CC1 when you have a moment?
## Output inactive

## Input Dear colleague, could you share the recorded outcome for CC(=O)Nc1ccc(S(=O)(=O)N(Cc2cccnc2)Cc2cc3ccccc3nc2O)cc1 when you have a moment?
## Output inactive

* * *

Experimental system: Corticotropin-releasing factor receptor 2/Corticotropin-releasing factor-binding protein (Homo sapiens, UniProt P24387+Q13324)
Sequence (Q13324 whole entry): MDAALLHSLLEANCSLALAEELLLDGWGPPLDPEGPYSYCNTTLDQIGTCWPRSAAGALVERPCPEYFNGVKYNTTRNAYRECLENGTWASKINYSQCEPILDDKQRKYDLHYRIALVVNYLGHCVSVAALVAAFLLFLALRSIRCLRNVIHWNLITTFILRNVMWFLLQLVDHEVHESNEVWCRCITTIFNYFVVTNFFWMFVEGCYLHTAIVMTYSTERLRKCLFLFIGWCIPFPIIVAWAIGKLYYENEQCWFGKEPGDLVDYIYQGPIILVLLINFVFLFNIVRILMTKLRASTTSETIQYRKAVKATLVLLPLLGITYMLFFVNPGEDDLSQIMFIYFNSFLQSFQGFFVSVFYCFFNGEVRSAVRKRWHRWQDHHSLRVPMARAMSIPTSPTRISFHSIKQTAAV
Sequence (P24387 whole entry): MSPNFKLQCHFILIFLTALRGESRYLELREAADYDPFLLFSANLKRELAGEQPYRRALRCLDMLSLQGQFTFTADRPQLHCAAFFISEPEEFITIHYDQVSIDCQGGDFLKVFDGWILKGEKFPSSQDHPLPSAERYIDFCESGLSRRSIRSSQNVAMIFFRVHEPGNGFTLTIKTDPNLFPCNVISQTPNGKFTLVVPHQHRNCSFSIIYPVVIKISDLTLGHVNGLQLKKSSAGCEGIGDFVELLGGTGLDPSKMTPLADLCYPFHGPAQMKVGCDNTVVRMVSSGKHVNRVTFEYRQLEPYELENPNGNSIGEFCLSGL
Assay method text: Dose Response confirmation of uHTS hits for small molecule antagonists of the CRF-binding protein and CRF-R2 receptor complex.
Type: functional
Run parameters: read-out: IC50_Mean
The source made the active and inactive calls.
Task for the reader: assign each of the following compounds its reported IC50.

## Input For the compound O=C(Nc1ccccc1N1CCCCC1)C1CCN(C(=O)c2ccc(Cl)cc2)CC1 , report IC50.
## Output > 47.1 µM (inactive)

## Input For the compound COc1ccc(C(C)=O)cc1CSc1nnc2c(Cl)cc(Cl)cn12 , report IC50.
## Output > 47.1 µM (inactive)

## Input For the compound CCCCC1(CCCC)C(=O)N=C(Nc2cccc(C)c2)NC1=O , report IC50.
## Output > 47.1 µM (inactive)

## Input For the compound C=CCn1c(SCc2ccc(F)cc2)nc2c1c(=O)[nH]c(=O)n2C , report IC50.
## Output > 47.1 µM (inactive)

## Input For the compound CC(C)c1ccc(NC(=S)NN2CCOCC2)cc1 , report IC50.
## Output > 47.1 µM (inactive)

## Input For the compound N#Cc1ccsc1NC(=O)c1cccc([N+](=O)[O-])c1 , report IC50.
## Output 3.12 µM (active)

## Input For the compound Cc1ccc(S(=O)(=O)N2CCCCC2)cc1C(=O)N(CCc1ccccc1)Cc1ccccc1 , report IC50.
## Output 1.19 µM (active)

## Input For the compound Cc1noc(C)c1S(=O)(=O)N1CCC(C(=O)N2CCN(c3ccc(F)cc3)CC2)CC1 , report IC50.
## Output > 47.1 µM (inactive)

## Input For the compound Cn1c(=O)oc2cc(S(=O)(=O)NCCC(=O)NCc3ccc(F)cc3)ccc21 , report IC50.
## Output > 47.1 µM (inactive)

## Input For the compound CCC(C)C(=O)Nc1nnc(SCC(=O)NC(C)(C)C)s1 (stereo not drawn) , report IC50.
## Output > 47.1 µM (inactive)

## Input For the compound Cc1ccc(-c2nn(C)c(=O)c3ccccc23)cc1CO , report IC50.
## Output > 47.1 µM (inactive)

## Input For the compound CC(=O)C1=C(C)N=C(S)NC1c1cc([N+](=O)[O-])ccc1O (stereo not drawn) , report IC50.
## Output > 47.1 µM (inactive)

## Input For the compound O=C(Nc1ccc(Oc2cccnc2)nc1)c1ccc(C(F)(F)F)cc1 , report IC50.
## Output > 47.1 µM (inactive)

## Input For the compound Cc1ccccc1CNC(=O)Nc1cccs1 , report IC50.
## Output > 47.1 µM (inactive)

## Input For the compound O=C(COc1ccccc1F)N1CCN(CCN2C(=O)c3cccc4cccc(c34)C2=O)CC1 , report IC50.
## Output > 47.1 µM (inactive)

## Input For the compound O=c1oc(-c2ccco2)nc2sc3c(c12)CCCC3 , report IC50.
## Output > 47.1 µM (inactive)

## Input For the compound O=C(CN1CCN(C(=O)c2ccco2)CC1)Nc1c2c(nc3c1CCC3)CCCC2 , report IC50.
## Output > 47.1 µM (inactive)

## Input For the compound CC(=O)c1cccc(Nc2nc3ccccc3n3cnnc23)c1 , report IC50.
## Output < 0.368 µM (active)

## Input For the compound CCOc1ccc(S(=O)(=O)n2ccc(C)n2)c2ccccc12 , report IC50.
## Output < 0.368 µM (active)

## Input For the compound Cc1ccc(S(=O)(=O)CCC(=O)Nc2cc(Cl)ccc2-n2cncn2)cc1 , report IC50.
## Output > 47.1 µM (inactive)

## Input For the compound Cc1ccc(CNC(=O)CN(c2ccc(C)cc2)S(=O)(=O)c2c(C)nn(C)c2C)cc1 , report IC50.
## Output > 47.1 µM (inactive)

## Input For the compound Cc1nnc(SCC(=O)N(C)c2c(N)n(Cc3ccccc3)c(=O)[nH]c2=O)n1Cc1ccccc1 , report IC50.
## Output > 47.1 µM (inactive)

## Input For the compound CC(=O)N1N=C(C)CC1c1ccc(OCc2ccccc2)cc1 (stereo not drawn) , report IC50.
## Output > 47.1 µM (inactive)
